Values compiled from paper PMC10726135.

measured on: HNF4alpha2 (COS-7 nuclear extract) (Homo sapiens, UniProt P41235 1-474)
Sequence: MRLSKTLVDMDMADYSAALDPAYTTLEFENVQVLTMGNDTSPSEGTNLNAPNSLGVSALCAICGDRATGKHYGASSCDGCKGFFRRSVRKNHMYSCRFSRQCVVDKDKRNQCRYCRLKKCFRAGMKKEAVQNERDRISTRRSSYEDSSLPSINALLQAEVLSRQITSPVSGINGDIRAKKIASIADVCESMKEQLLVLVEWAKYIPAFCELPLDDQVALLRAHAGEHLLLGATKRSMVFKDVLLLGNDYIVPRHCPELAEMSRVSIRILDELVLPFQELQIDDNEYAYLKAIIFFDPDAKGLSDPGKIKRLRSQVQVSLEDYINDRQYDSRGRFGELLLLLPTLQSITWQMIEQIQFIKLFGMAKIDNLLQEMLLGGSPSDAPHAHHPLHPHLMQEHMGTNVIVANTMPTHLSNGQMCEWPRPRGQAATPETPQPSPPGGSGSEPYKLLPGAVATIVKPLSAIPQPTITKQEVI
measurement protocol: protein-binding microarray; COS-7 nuclear extract on double-stranded Agilent 4x180k PBM; binding buffer, salt, pH and temperature not given in the material; high values mean tight binding
condition set: chain copies: 2; label: 3' end of strand 1 on the slide; dsDNA, one strand shown
Over roughly 18,000 sequences, “log2 normalized intensity” has its median near 0.39; the highest 2% begin near 6.6. This excerpt belongs to a sample that is enriched for the highest values.
Attribute: binding signal
Supply the numeric figure in log2 normalized intensity, leaving out any unit text.

GTTGCTTCCACCTATGAGTCTGTAAAGTCAGCCTAGGGAGATTAGAGTATCGGTCGA : 0.468

Q: Give recorded binding signal. `AGCAATGTTTCTTGTCCAGGGACTTTGAACGCCTAGGGAGATTAGAGTATCGGTCGA`
A: 5.74

Q: Give recorded binding signal. `CTAGTGTACAGGTGACCTTTGGAATGAACCGCCTAGGGAGATTAGAGTATCGGTCGA`
A: 7.14

Q: Give recorded binding signal. `AAGCATTTGGAGATTGCCACCTTGGTGAGAGCCTAGGGAGATTAGAGTATCGGTCGA`
A: 0.715

Q: Give recorded binding signal. `CAGTACTGAAACATGCCTATGACCGAGGGTGCCTAGGGAGATTAGAGTATCGGTCGA`
A: 0.809

Q: Give recorded binding signal. `CAACTGACATCTGGAAATGTTTGTAGGGACGCCTAGGGAGATTAGAGTATCGGTCGA`
A: 0.308

Q: Give recorded binding signal. `TAGGCCACCTGTGTCAACATGGACTTTGTTGCCTAGGGAGATTAGAGTATCGGTCGA`
A: 5.86

Q: Give recorded binding signal. `CTTTGACCCTGTTTTGTAAACTCCCTTTGAGCCTAGGGAGATTAGAGTATCGGTCGA`
A: 1.78

Q: Give recorded binding signal. `AACACTATCTTCTTTCAGTGTTGACCTTTGGCCTAGGGAGATTAGAGTATCGGTCGA`
A: 6.87

###

measured on: HNF4alpha2 (COS-7 nuclear extract) (Homo sapiens, UniProt P41235 1-474)
Sequence: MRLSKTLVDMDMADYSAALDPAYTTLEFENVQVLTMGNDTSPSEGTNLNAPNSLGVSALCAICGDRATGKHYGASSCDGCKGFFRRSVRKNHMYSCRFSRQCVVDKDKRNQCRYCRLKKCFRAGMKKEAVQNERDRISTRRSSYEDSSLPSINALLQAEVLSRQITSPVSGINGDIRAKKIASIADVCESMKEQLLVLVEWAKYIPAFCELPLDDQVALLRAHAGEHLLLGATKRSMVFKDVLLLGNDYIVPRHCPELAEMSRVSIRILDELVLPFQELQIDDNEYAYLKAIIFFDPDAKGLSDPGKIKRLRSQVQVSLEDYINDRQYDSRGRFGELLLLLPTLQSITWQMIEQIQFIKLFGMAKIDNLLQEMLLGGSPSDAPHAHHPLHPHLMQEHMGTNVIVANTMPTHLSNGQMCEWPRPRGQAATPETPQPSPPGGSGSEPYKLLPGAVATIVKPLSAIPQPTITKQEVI
measurement protocol: protein-binding microarray; COS-7 nuclear extract on double-stranded Agilent 4x180k PBM; binding buffer, salt, pH and temperature not given in the material; high values mean tight binding
condition set: chain copies: 2; label: 3' end of strand 1 on the slide; dsDNA, one strand shown
Over roughly 18,000 sequences, “log2 normalized intensity” has its median near 0.39; the highest 2% begin near 6.6. Many of the other results were omitted from the sample, so the highest values are more common in it than they were.
Attribute: binding signal
Supply the numeric figure in log2 normalized intensity, leaving out any unit text.

ATCTCAAATAGCTGGGTCTCACTCTGACCCGCCTAGGGAGATTAGAGTATCGGTCGA : 3.32

Q: Tell me its binding signal on HNF4alpha2 (COS-7 nuclear extract) (Homo sapiens, UniProt P41235 1-474): `AATTCACGTCATTTTGTCACCTACATGTGAGCCTAGGGAGATTAGAGTATCGGTCGA`
A: 1.67

Q: Tell me its binding signal on HNF4alpha2 (COS-7 nuclear extract) (Homo sapiens, UniProt P41235 1-474): `AACCTTCATCTCTCTTTGTTGACATCTGCTGCCTAGGGAGATTAGAGTATCGGTCGA`
A: 0.528

Q: Tell me its binding signal on HNF4alpha2 (COS-7 nuclear extract) (Homo sapiens, UniProt P41235 1-474): `GAATGTTGAACCTTTCTTTGTCTTTGCAATGCCTAGGGAGATTAGAGTATCGGTCGA`
A: 2.02

Q: Tell me its binding signal on HNF4alpha2 (COS-7 nuclear extract) (Homo sapiens, UniProt P41235 1-474): `AGCTGGACTTTGAACTTCATGTGTGGTGCAGCCTAGGGAGATTAGAGTATCGGTCGA`
A: 6.21

Q: Tell me its binding signal on HNF4alpha2 (COS-7 nuclear extract) (Homo sapiens, UniProt P41235 1-474): `CTGCTTGATAGCCATCTGGTGGACTTTGCTGCCTAGGGAGATTAGAGTATCGGTCGA`
A: 5.26

Q: Tell me its binding signal on HNF4alpha2 (COS-7 nuclear extract) (Homo sapiens, UniProt P41235 1-474): `AAACTTTAGTAGTCCAAAGCTCAGATTGCCGCCTAGGGAGATTAGAGTATCGGTCGA`
A: 0.566

Q: Tell me its binding signal on HNF4alpha2 (COS-7 nuclear extract) (Homo sapiens, UniProt P41235 1-474): `GCATTCCACCAAATCTTACCTAAGGAAGTTGCCTAGGGAGATTAGAGTATCGGTCGA`
A: -0.954

###

measured on: HNF4alpha2 (COS-7 nuclear extract) (Homo sapiens, UniProt P41235 1-474)
Sequence: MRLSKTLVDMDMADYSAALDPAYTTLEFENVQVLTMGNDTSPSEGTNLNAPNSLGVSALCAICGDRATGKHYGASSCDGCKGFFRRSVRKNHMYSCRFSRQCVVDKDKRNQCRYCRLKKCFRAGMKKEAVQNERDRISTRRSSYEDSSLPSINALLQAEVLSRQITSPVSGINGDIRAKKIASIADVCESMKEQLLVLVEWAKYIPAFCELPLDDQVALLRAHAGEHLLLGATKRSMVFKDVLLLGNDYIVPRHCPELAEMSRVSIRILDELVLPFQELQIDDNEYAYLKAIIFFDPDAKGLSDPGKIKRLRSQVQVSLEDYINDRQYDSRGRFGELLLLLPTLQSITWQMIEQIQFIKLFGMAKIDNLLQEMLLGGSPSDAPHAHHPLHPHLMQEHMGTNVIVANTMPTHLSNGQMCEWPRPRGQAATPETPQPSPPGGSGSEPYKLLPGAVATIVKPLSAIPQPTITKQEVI
measurement protocol: protein-binding microarray; COS-7 nuclear extract on double-stranded Agilent 4x180k PBM; binding buffer, salt, pH and temperature not given in the material; high values mean tight binding
condition set: chain copies: 2; label: 3' end of strand 1 on the slide; dsDNA, one strand shown
Whole data set: some 18,000 sequences, median “log2 normalized intensity” near 0.39, cut for the highest 2% near 6.6. This excerpt belongs to a sample that is enriched for the highest values.
Attribute: binding signal
State the value, then name its unit.

TGGACTTTGATCCTGATGACTGCAGAGCTTGCCTAGGGAGATTAGAGTATCGGTCGA : 5.26 log2 normalized intensity
TGCAGCCCTGCCACTCTTTTTTAGACTTTGGCCTAGGGAGATTAGAGTATCGGTCGA : 3.72 log2 normalized intensity
ATCCTGCAGTTCCTGATCTTTGACCTGGAGGCCTAGGGAGATTAGAGTATCGGTCGA : 5.61 log2 normalized intensity
GACCTCTGCCCTTCCACCCACTTTATCTTCGCCTAGGGAGATTAGAGTATCGGTCGA : 3.26 log2 normalized intensity

Q: Give recorded binding signal. `CAGTTTGGACTTTGATCCTGATGACTGCAGGCCTAGGGAGATTAGAGTATCGGTCGA`
A: 7.49 log2 normalized intensity
